Molecular target: T1, Ang2 with K468 mutated with alanine, tagged with FLAG (human, UniProt O15123 19-496, limits assumed)
T1 sequence: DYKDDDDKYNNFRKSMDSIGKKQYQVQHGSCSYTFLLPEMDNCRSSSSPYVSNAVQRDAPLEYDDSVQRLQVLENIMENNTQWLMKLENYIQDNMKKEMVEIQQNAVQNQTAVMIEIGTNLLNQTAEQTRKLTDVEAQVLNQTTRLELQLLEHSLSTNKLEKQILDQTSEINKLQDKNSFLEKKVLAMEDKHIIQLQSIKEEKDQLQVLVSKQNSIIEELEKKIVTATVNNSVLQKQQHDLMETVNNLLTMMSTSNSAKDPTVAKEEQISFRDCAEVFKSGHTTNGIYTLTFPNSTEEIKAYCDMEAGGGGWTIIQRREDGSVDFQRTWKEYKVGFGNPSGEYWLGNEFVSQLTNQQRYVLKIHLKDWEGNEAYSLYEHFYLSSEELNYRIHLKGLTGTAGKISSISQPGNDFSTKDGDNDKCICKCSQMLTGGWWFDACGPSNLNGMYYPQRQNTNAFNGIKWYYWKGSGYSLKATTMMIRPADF
Experiment: ELISA, scFv coated, 250 ng FLAG-tagged Ang2 mutant, anti-FLAG-HRP
Value kind: Relative binding (%) with Mutant Ang2 compared to the binding with native Ang2
Output spec: scalar in %, unitless text.

For record SAIT-ANG-2-AB-4-F11 (scFv form) (scFv, V domains shown, scFv from a phage display library) VH: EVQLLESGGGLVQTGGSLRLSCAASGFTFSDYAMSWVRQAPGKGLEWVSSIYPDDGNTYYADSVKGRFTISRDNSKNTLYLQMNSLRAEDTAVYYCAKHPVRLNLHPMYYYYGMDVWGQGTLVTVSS VL: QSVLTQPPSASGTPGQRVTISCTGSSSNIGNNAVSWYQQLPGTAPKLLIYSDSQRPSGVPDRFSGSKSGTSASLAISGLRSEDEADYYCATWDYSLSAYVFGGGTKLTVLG the listed Relative binding (%) with Mutant Ang2 compared to the binding with native Ang2 is 102
